Tested on: Caco-2 cells
testMethodNotes: Cell permeability flux assay using Caco-2 cells
Assay type: in vitro ADME
conditionParameters: basal to apical, 2 hours
Square brackets hold non-standard residues; d marks the D form. Peptide text beside a SMILES is read from it. * marks the point of attachment. X2 = CC(C)[C@@H](C(=O)*)N(C)CCCCCCN1C(=O)CC(SC[C@H](N)C(=O)O)C1=O; X1 = CC(C)[C@@H](C(=O)*)N(C)CCCCCC(=O)NCCCC[C@H](N)C(=O)O; Dolaproine = CO[C@@H]([C@@H]1CCCN1)[C@@H](C)C(=O)O; Dil = CC[C@H](C)[C@H](NC)[C@@H](CC(=O)O)OC; Oxazinan2yl(1,2) = C1CCN(*)OC1
List of Papp (B-A) values.

compound	testTarget	unitOfMeasure	Papp (B-A)
CC[C@H](C)[C@@H]([C@@H](CC(=O)N1CCC[C@H]1[C@H](OC)[C@@H](C)C(=O)N[C@@H](Cc1ccc(O)cc1)C(=O)N1CCCCO1)OC)N(C)C(=O)[C@@H](NC(=O)[C@H](C(C)C)N(C)CCCCCC(=O)NCCCC[C@H](N)C(=O)O)C(C)C [Example 127] (X1-V[Dil][Dolaproine]Y-{Oxazinan2yl(1,2)})	Caco-2 cells	nm/s	1.5
CC[C@H](C)[C@@H]([C@@H](CC(=O)N1CCC[C@H]1[C@H](OC)[C@@H](C)C(=O)N[C@@]1(C(=O)N2CCCCO2)C[C@@H]1c1ccccc1)OC)N(C)C(=O)[C@@H](NC(=O)[C@H](C(C)C)N(C)CCCC(=O)NNC(=O)CCCCCN1C(=O)CC(SC[C@H](N)C(=O)O)C1=O)C(C)C (some centres unmarked)	Caco-2 cells	nm/s	2.5
CC[C@H](C)[C@@H]([C@@H](CC(=O)N1CCC[C@H]1[C@H](OC)[C@@H](C)C(=O)N[C@@H](Cc1c[nH]c2ccccc12)C(=O)O)OC)N(C)C(=O)[C@@H](NC(=O)[C@H](C(C)C)N(C)CCCCCC(=O)NCCCC[C@H](N)C(=O)O)C(C)C [Example 116] (X1-V[Dil][Dolaproine]W-OH)	Caco-2 cells	nm/s	1
CC[C@H](C)[C@@H]([C@@H](CC(=O)N1CCC[C@H]1[C@H](OC)[C@@H](C)C(=O)N[C@@H](Cc1c[nH]c2ccccc12)C(N)=O)OC)N(C)C(=O)[C@@H](NC(=O)[C@H](C(C)C)N(C)CCCCCCN1C(=O)CC(SC[C@H](N)C(=O)O)C1=O)C(C)C (some centres unmarked) [Example 74] (X2-V[Dil][Dolaproine]W-NH2)	Caco-2 cells	nm/s	5
CC[C@H](C)[C@@H]([C@@H](CC(=O)N1CCC[C@H]1[C@H](OC)[C@@H](C)C(=O)N[C@@H](Cc1c[nH]c2ccccc12)C(=O)NCc1ccccc1)OC)N(C)C(=O)[C@@H](NC(=O)[C@H](C(C)C)N(C)CCCC(=O)NNC(=O)CCCCCN1C(=O)CC(SC[C@H](N)C(=O)O)C1=O)C(C)C (some centres unmarked)	Caco-2 cells	nm/s	7
